tested on: A498 renal; assay: NCI-60 one-dose screen, 48 h; settings: 10 µM unless noted
The panel holds about 83,000 compounds, 20% with a hit somewhere; the sample as a whole holds those more often. Active and inactive are the calls of the source. The calls were made as follows: active = growth percent below 10; inactive = the rest.
Hi there, use one of these labels in your reply, thanks! active, inactive

# example entries with known answers
>>> group_label("CCCOC(=O)C1c2cc3c(cc2CC(C)C1C(=O)OCCC)OCO3 (stereo unspecified)")
"inactive"
>>> group_label("CC(C)N1CCN(c2ccncc2S(=O)(=O)N2CCN(C)CC2)CC1")
"inactive"
>>> group_label("Cn1c(=O)c2c3c(oc2c2ccccc21)C(=O)c1ccccc1C3=O")
"inactive"
>>> group_label("COc1cc(-c2csc(NC(=O)Nc3cccc(C(F)(F)F)c3)n2)cc(OC)c1OC")
"inactive"
>>> group_label("COc1cc(C)cc2oc3oc(=O)c(-c4csc(-c5cc6ccccc6oc5=O)n4)cc3c(=O)c12")
"inactive"

Q: Please state the recorded outcome for this molecule: CNCc1cccc2c1OCCOCCOCCC(C)S(=O)(=O)c1ccc(cc1)-c1cnc(N)c(n1)C(=O)N2 (stereo unspecified)
Result: active
